System: Streptococcus suis
Assay: Relative potency for against treptococcus suis 628 binding to pigeon ovomucoid by surface plasmon resonance assay measured as IC50 for monovalent galobiose compound to the multivalent compound
Assay type: functional
measurement.type: Ratio IC50
Give bare numbers.

Before answering, review these 3 worked examples.
I'd like to know its Ratio IC50. The compound in question is `O=C(COCC(=O)NCCCO[C@@H]1O[C@H](CO)[C@H](O[C@H]2O[C@H](CO)[C@H](O)[C@H](O)[C@H]2O)[C@H](O)[C@H]1O)NCC#Cc1cccc(C#CCNC(=O)COCC(=O)NCCCO[C@@H]2O[C@H](CO)[C@H](O[C@H]3O[C@H](CO)[C@H](O)[C@H](O)[C@H]3O)[C@H](O)[C@H]2O)c1`
6

# get_value(readout='Ratio IC50', item= `COC(=O)c1cc(OCCNC(=O)COCC(=O)NCCCO[C@@H]2O[C@H](CO)[C@H](O[C@H]3O[C@H](CO)[C@H](O)[C@H](O)[C@H]3O)[C@H](O)[C@H]2O)cc(OCCNC(=O)COCC(=O)NCCCO[C@@H]2O[C@H](CO)[C@H](O[C@H]3O[C@H](CO)[C@H](O)[C@H](O)[C@H]3O)[C@H](O)[C@H]2O)c1` )
8

Would you kindly share the measured Ratio IC50 for `COC(=O)c1cc(OCCNC(=O)COCC(=O)NCCCOCCOCCOCCCNC(=O)COCC(=O)NCCCO[C@@H]2O[C@H](CO)[C@H](O[C@H]3O[C@H](CO)[C@H](O)[C@H](O)[C@H]3O)[C@H](O)[C@H]2O)cc(OCCNC(=O)COCC(=O)NCCCOCCOCCOCCCNC(=O)COCC(=O)NCCCO[C@@H]2O[C@H](CO)[C@H](O[C@H]3O[C@H](CO)[C@H](O)[C@H](O)[C@H]3O)[C@H](O)[C@H]2O)c1` ?
12

Next:
// query Ratio IC50 value for entry `O=C(COCC(=O)NCCCO[C@@H]1O[C@H](CO)[C@H](O[C@H]2O[C@H](CO)[C@H](O)[C@H](O)[C@H]2O)[C@H](O)[C@H]1O)NCC#Cc1ccc(C#CCNC(=O)COCC(=O)NCCCO[C@@H]2O[C@H](CO)[C@H](O[C@H]3O[C@H](CO)[C@H](O)[C@H](O)[C@H]3O)[C@H](O)[C@H]2O)cc1`
6
